Hello, the source for this data is paper PMC7402283, in case you need it.

- target system: TvG6PD::6PGL (Trichomonas vaginalis, UniProt A2EC78)
- Construct: full-length fused protein, 716 aa, G6PD N-terminal (1-483) and 6PGL C-terminal, 81,692 Da; pET3a-HisTEV, N-terminal His6 tag removed by TEV protease; E. coli BL21(DE3) zwf-deleted; native tetramer
- Sequence (A2EC78 1-716): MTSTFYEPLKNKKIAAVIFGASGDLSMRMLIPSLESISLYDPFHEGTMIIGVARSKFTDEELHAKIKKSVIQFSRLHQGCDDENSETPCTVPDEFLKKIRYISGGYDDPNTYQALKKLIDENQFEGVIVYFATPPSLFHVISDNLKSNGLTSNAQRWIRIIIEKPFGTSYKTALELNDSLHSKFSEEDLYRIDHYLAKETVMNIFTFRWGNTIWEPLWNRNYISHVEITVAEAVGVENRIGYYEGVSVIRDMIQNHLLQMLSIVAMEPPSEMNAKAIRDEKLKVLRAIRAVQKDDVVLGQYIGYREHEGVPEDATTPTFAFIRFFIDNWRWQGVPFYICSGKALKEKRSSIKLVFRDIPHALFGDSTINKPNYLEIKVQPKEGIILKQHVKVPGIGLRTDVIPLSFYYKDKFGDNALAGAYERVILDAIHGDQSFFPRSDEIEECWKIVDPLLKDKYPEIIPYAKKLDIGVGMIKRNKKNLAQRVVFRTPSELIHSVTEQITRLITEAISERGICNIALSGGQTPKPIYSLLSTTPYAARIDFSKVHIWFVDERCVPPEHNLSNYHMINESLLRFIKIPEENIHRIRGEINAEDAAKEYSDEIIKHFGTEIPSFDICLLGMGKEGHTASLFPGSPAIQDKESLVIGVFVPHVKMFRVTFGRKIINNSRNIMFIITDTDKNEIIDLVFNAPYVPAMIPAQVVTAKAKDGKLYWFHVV
- experimental details: intrinsic tryptophan fluorescence quenching titration, excitation […] nm
assay endpoint: Kd (nM)
Just the number please, in nM, no unit attached.

Request the reported Kd associated with NC(=O)c1ccc[n+]([C@@H]2O[C@H](COP(=O)(O)OP(=O)(O)OC[C@H]3O[C@@H](n4cnc5c(N)ncnc54)[C@H](OP(=O)(O)O)[C@@H]3O)[C@@H](O)[C@H]2O)c1
31
